This section presents compounds with their documented IC50 values.
# target-under-test: human IDO1 (Homo sapiens)
# Sequence (P14902 whole entry): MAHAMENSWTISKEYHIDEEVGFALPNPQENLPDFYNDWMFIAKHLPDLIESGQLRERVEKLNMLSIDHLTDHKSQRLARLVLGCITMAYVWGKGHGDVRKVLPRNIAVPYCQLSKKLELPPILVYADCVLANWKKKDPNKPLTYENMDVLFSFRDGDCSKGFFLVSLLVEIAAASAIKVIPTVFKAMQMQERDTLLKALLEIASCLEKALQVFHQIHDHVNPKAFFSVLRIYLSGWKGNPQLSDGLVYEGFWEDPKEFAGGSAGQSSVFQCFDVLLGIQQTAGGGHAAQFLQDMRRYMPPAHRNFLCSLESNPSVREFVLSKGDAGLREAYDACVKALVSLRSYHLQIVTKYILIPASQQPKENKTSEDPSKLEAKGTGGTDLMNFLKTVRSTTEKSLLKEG
# protocol: HEK Human IDO-1 inhibition assay (kynurenine readout, Ehrlich reagent, absorbance 490 nm)
# measurement-setup: human IDO1/HEK293 cells, incubated 20 hours with compound; 500 nM reference standard = 100% inhibition

Illustrative cases are given below, each with its answer.
CC(C)CN(c1ccc(OCc2nnn[nH]2)cc1NC(=O)Nc1ccc(Cl)cc1F)C1CCCCC1 [Example 96]	< 5 nM
Cc1cc(F)ccc1NC(=O)Nc1cc(OCC(=O)O)ccc1N(CC(C)C)C1CCCCC1 [Example 38]	≥ 100 nM
CCC(Oc1ccc(N(CC(C)C)C2CCCCC2)c(NC(=O)Nc2ccc(Cl)cc2F)c1)C(=O)O (single isomer, unassigned) [Example 80-1]	< 5 nM
CCCC(Oc1ccc(N(CC(C)C)C2CCCCC2)c(NC(=O)Nc2ccccc2F)c1)C(=O)O (single isomer, unassigned) [Example 87-1]	< 5 nM
CCC(Oc1ccc(N(CC(C)C)C2CCCCC2)c(NC(=O)Nc2ccccc2F)c1)C(=O)O (single isomer, unassigned) [Example 81-2]	< 5 nM

Q: So what does the record say about IC50 for CC(C)CN(c1ccc(OCC(=O)Nc2ncco2)cc1NC(=O)Nc1ccc(Cl)cc1F)C1CCCCC1 [Example 154] ?
A: < 5 nM

Q: Fill in the blank: the reported IC50 of COCC(Oc1ccc(N(CC(C)C)C2CCCCC2)c(NC(=O)Nc2ccc(Cl)cc2F)c1)C(=O)O (single isomer, unassigned) [Example 89-1] is ____.
A: < 5 nM

Q: Tell me the measured IC50 of Cc1ccc(NC(=O)Nc2cc(OC(C)C(=O)O)ccc2N(CC(C)C)C2CCCCC2)c(F)c1 (single isomer, unassigned) [Example 65-2] , please.
A: < 5 nM

Q: I have this compound here, CC(C)CN(c1cc(F)c(OC(C)C(=O)O)cc1NC(=O)Nc1ccc(Cl)cc1F)C1CCCCC1 (single isomer, unassigned) [Example 136-1] , and I need its recorded IC50.
A: < 5 nM

Q: Which value of IC50 has been reported for CC(C)CN(c1ccc(OCC(=O)O)cc1NC(=O)Nc1ccc(C#N)cc1)C1CCCCC1 [Example 39] in the records?
A: ≥ 100 nM

Q: Look up IC50 for this compound: CC(C)CN(c1ccc(OCC(=O)O)cc1NC(=O)Nc1ccc(Cl)cc1F)C1CCC(O)CC1 (centres unmarked) [Example 150]
A: ≥ 100 nM

Q: Endpoint output: IC50 of CC(C)CN(c1ccc(OC(C)C(=O)O)cc1NC(=O)Cc1ccc(F)cc1F)C1CCCCC1 (racemic) [Example 71] . Value?
A: < 100 nM

Q: # lookup: IC50 of Cc1ccc(NC(=O)Nc2cc(OCC(=O)O)ccc2N(CC(C)C)C2CCCCC2)cc1F [Example 33]
A: < 100 nM

Q: Dear colleague, I am looking for the recorded IC50 of the following compound: O=C(O)COc1ccc(N(CC2CC2)C2CCCCC2)c(NC(=O)Nc2cc(F)ccc2F)c1 [Example 130]
A: < 100 nM
